Where do the numbers come from? From patent US7282356B2.

tgt: Alcaligenes denitrificans subsp. xylosoxydans MI-4 D-aminoacylase mutant M347-0133 (M347A of SEQ ID NO: 1) (Alcaligenes xylosoxydans xylosoxydans, UniProt P72349, M347A)
protocol-details: Inhibition/kinetics test of purified mutant D-aminoacylase M347-0133
readout-kind: Ki (mM)
# output: bare number, implied unit mM

stdin: GET /values?readout=Ki&item= CC(=O)N[C@@H](Cc1c[nH]c2ccccc12)C(=O)O [N-acetyl-L-tryptophan]
stdout: 12.3

---

tgt: Alcaligenes denitrificans subsp. xylosoxydans MI-4 D-aminoacylase mutant A154-0043 (A154V of SEQ ID NO: 1) (Alcaligenes xylosoxydans xylosoxydans, UniProt P72349, A154V)
protocol-details: Inhibition/kinetics test of purified mutant D-aminoacylase A154-0043
readout-kind: pKi
FYI, pKi means -log10 of a concentration in mol per litre.

stdin: GET /values?readout=pKi&item= "CC(=O)N[C@@H](Cc1c[nH]c2ccccc12)C(=O)O"
stdout: 2.19

---

tgt: Alcaligenes denitrificans subsp. xylosoxydans MI-4 D-aminoacylase mutant R374-0017 (R374F of SEQ ID NO: 1) (Alcaligenes xylosoxydans xylosoxydans, UniProt P72349, R374F)
protocol-details: Inhibition/kinetics test of purified mutant D-aminoacylase R374-0017
Protocol: The enzyme reaction can be achieved by incubating 1.0 ml of a reaction solution containing 20 mM N-acetyl-D-tryptophan (Sigma), 50 mM Tris-hydrochloride buffer (pH 7.5), and an enzyme solution at 30° C. for 10 minutes. Then, the reaction is stopped by adding 0.5 ml of a stop solution containing TCA (comprising 0.11 M trichloroacetic acid, 0.22 M sodium acetate, and 0.33 M acetic acid). The amount of D-tryptophan produced can be determined by TNBS method (Biosci. Biotech. Biochem., 58, 24 (1994)). […]
readout-kind: Ki (mM)
# output: bare number, implied unit mM

stdin: GET /values?readout=Ki&item= "CC(=O)N[C@@H](Cc1c[nH]c2ccccc12)C(=O)O"
stdout: 7.46
